Literature roundup of TEC (Homo sapiens, UniProt P42680) data, read-out pIC50.
Kindly note that pIC50 refers to -log10 of the concentration in mol/L and answer with the value alone.

Recorded pIC50 (molecule C=CC(=O)N1CC[C@@H](Nc2n[nH]c3nccc(-c4ccc(CNC(=O)c5cc(-c6ccccc6)on5)c(F)c4)c23)C1 ): 6.60

What the record says about C=CC(=O)N1CC[C@H](Nc2n[nH]c3nccc(-c4ccc(CNC(=O)c5ccc(C(C)(C)C)cc5)c(F)c4)c23)C1 : pIC50 is 5.10

Entry C=CC(=O)N1CC[C@@H](Nc2n[nH]c3nccc(-c4cccc(NC(=O)c5noc(C(C)(C)C)n5)c4C)c23)C1 — recorded pIC50 = 6.05

Entry NC(=O)[C@H]1CCN(c2ncnc(N)c2F)C[C@@H]1N1CCC[C@@H](Nc2cc(Cl)cc(C(F)(F)F)c2)C1=O — recorded pIC50 = 7.72

// recorded pIC50 for C=CC(=O)N1CC[C@@H](Nc2n[nH]c3nccc(-c4cccc(NC(=O)c5ccc(C(C)(C)C)cc5)c4CO)c23)C1 : 6.50

For C=CC(=O)N1CC[C@@H](Nc2n[nH]c3nccc(-c4ccc(CNC(=O)c5ccccc5)c(F)c4)c23)C1 the molecule record lists pIC50 as 6.66

In plain terms, CN(C)C(=O)N1CC[C@@H](Nc2n[nH]c3nccc(-c4ccc(CNC(=O)c5coc(C6CC6)n5)c(F)c4)c23)C1 has a documented pIC50 of 5.24

So for COC(=O)N1C[C@H](Nc2n[nH]c3nccc(-c4ccc(CNC(=O)c5noc(C(C)(C)C)n5)c(F)c4)c23)CC[C@@H]1C , the logged pIC50 turned out to be 5.86

Quick note, pIC50 for C=CC(=O)N1CC[C@@H](Nc2n[nH]c3nccc(-c4ccc(NC(=O)Nc5noc(C(C)(C)C)n5)c(F)c4)c23)C1 landed at 6.39

Notebook: CC(=O)OCC(=O)N1C[C@H](Nc2n[nH]c3nccc(-c4ccc(CNC(=O)c5nc(C(C)(C)C)no5)c(F)c4)c23)CC[C@@H]1C , pIC50 read as 5.92

Just so you know, measured pIC50 for CC(C)(C)c1noc(C(=O)NCc2ccc(-c3ccnc4[nH]nc(N5CC[C@H](N)C5)c34)cc2F)n1 came out at 6.23

Measured pIC50 of C=CC(=O)N1CC[C@@H](Nc2n[nH]c3nccc(-c4ccc(CNC(=O)c5ccc6sc(C)nc6c5)c(F)c4)c23)C1 : 6.56

According to the records, this molecule CC#CC(=O)N1CCC[C@H]1c1nc(-c2ccc(Oc3ccccc3)cc2)c2c(N)nccn12 displays pIC50 of 7.40

Form: molecule = C=CC(=O)N1CCC(Nc2n[nH]c3nccc(-c4ccc(CNCc5noc(C(C)(C)C)n5)c(F)c4)c23)C1 (stereo not shown) ; pIC50 = 5.52

C=CC(=O)N1CC[C@@H](Nc2n[nH]c3nccc(-c4ccc(CNC(=O)c5noc(C(C)(C)C)n5)cc4)c23)C1 has a reported pIC50 of 7.26

pIC50 reported for this molecule C=CC(=O)N1CC[C@@H](Nc2n[nH]c3nccc(-c4ccc(CNC(=O)c5ccc(OC)cc5)c(F)c4)c23)C1 : 7.15

Kindly note the recorded pIC50 for CN1CCCN([C@@H]2CCN(c3n[nH]c4nccc(-c5ccc(CNC(=O)c6nc(C(C)(C)C)no6)c(F)c5)c34)C2)C1=O , which is 5.25
